- methodNotes: Mycobacterium tuberculosis growth inhibition, primary screen (AID 1259343)
- conditionSummary: at 10 µM, hits give high values
Out of some 6,200 compounds screened, about 2,900 (47%) were called active. The set was probably picked from earlier hits. Some of the results follow.
Measured inhibition, listed per entry.

compound | inhibition, %
CCOC(=O)CNC(=O)CSc1ncnc2c1nnn2-c1ccc(OC)cc1 | -7.53
FC(F)Oc1ccc(C2=NNC(=NC3CC3)SC2)cc1 | 18.9
COc1ccc(C=C2N=C(c3cccc(F)c3)OC2=O)cc1 | 3.76
COc1ccc(-n2nnc3c(SCC(N)=O)ncnc32)cc1 | 14.3
O=C(C=Cc1ccc(Br)o1)NC1CCCCCC1 | 89.5
O=C(CSc1ncnc2c1nnn2-c1ccc(F)cc1)OCc1ccccc1 | 2.43
Cc1nc(N)sc1N=Nc1cccc2ccccc12 | 4.08
Cc1cc(C2=NNC(=NC3CC3)SC2)c(C)n1-c1ccccc1F | 95.9
COC(=O)C(C)Sc1ncnc2c1nnn2-c1ccc(F)cc1 (stereo not given) | 76.7
Brc1ccccc1-c1nnc(SCc2ncc(-c3ccccc3)o2)o1 | -4.92
Cc1[nH]ccc2c1[nH]c1cc(=O)ccc12 | 90.6
Cc1ccc(C)n1-c1ccsc1C(=O)NC1CCCC1 | 39.9
CCOc1ccc(NC(=O)CSc2nc(=O)n3ccccc3n2)cc1 | 2.8
O=C(C=Cc1cccs1)c1cccs1 | 15.1
CC1c2cccn2CCN1Cc1csc(Nc2ccccc2)n1 (stereo not given) | 20.8
O=C(NNC(=O)C12CC3CC(CC(C3)C1)C2)c1sccc1-n1cccc1 | 61.1
CC1CCC(NC(=O)c2sccc2-n2cccc2)CC1 (stereo not given) | 87.7
COC(=O)CSc1ncnc2c1nnn2Cc1ccc(F)cc1 | -38.1
COc1cccc(C=C2N=C(c3ccccc3OC(F)F)OC2=O)c1 | 86.9
O=C(CC1CCCC1)NCCCNC(=O)CC1CCCC1 | 7.09
CCC(Sc1ncnc2c1nnn2-c1ccc(F)cc1)C(=O)OC (stereo not given) | 42.6
COC(=O)c1sccc1NC(=O)C=Cc1cccs1 | 81.4
CC(C)(C)N=C1NN=C(c2ccc3ccccc3c2)CS1 | 9.77
Cc1cc(C2=NNC(=NC3CCCC3)SC2)c(C)n1Cc1ccco1 | 99.4
Nc1[nH]n(-c2ccccc2)c(=O)c1N=Nc1cccc2ccccc12 | 56.7
